Entry source: paper PMC3961306

Test system: forty-four human cancer cell lines
Experiment: Cell proliferation assay (ATPlite, 72 hours) in the 44 cell line Oncolines panel
Type: cell-based
Details: Homo sapiens, A498, read-out: cell panel IC50, A-498
property: IC50 (µM)

INSERT INTO assay_data (record_smiles, scale_unit, quantitative_readout) VALUES
  ('CNC(=O)c1cc(Oc2ccc(NC(=O)Nc3ccc(Cl)c(C(F)(F)F)c3)cc2)ccn1', 'µM', 18.7);

----------
Target: panel of more than 300 wild-type and mutant kinases (313 kinase panel) (Homo sapiens, UniProt P19525)
Assay: Kinase profiling in a biochemical assay panel (mobility shift assays and ELISA), %-inhibition at 1 μM; selectivity entropy
Details: kinase PKR; 1 μM
property: %-inhibition of PKR (%)

INSERT INTO results (compound, property, scale_unit, quantitative_readout) VALUES
  ('COc1cc2c(Nc3ccc(Br)cc3F)ncnc2cc1OCC1CCN(C)CC1', '%-inhibition of PKR', '%', -1.09),
  ('CS(=O)(=O)CCNCc1ccc(-c2ccc3ncnc(Nc4ccc(OCc5cccc(F)c5)c(Cl)c4)c3c2)o1', '%-inhibition of PKR', '%', -0.192),
  ('CCCS(=O)(=O)Nc1ccc(F)c(C(=O)c2c[nH]c3ncc(-c4ccc(Cl)cc4)cc23)c1F', '%-inhibition of PKR', '%', -0.765),
  ('Cc1nc(Nc2ncc(C(=O)Nc3c(C)cccc3Cl)s2)cc(N2CCN(CCO)CC2)n1', '%-inhibition of PKR', '%', 3),
  ('Cc1ccc(C(=O)Nc2ccc(CN3CCN(C)CC3)c(C(F)(F)F)c2)cc1C#Cc1cnc2cccnn12', '%-inhibition of PKR', '%', 19),
  ('COc1cc2nccc(Oc3ccc(NC(=O)C4(C(=O)Nc5ccc(F)cc5)CC4)cc3)c2cc1OC [cabozantinib]', '%-inhibition of PKR', '%', -4.3),
  ('CNC(=O)c1cc(Oc2ccc(NC(=O)Nc3ccc(Cl)c(C(F)(F)F)c3)c(F)c2)ccn1', '%-inhibition of PKR', '%', -4.48),
  ('COc1cc(Nc2c(C#N)cnc3cc(OCCCN4CCN(C)CC4)c(OC)cc23)c(Cl)cc1Cl', '%-inhibition of PKR', '%', -13);

----------
Target: panel of more than 300 wild-type and mutant kinases (313 kinase panel) (Homo sapiens, UniProt Q16566)
Sequence (Q16566 1-473): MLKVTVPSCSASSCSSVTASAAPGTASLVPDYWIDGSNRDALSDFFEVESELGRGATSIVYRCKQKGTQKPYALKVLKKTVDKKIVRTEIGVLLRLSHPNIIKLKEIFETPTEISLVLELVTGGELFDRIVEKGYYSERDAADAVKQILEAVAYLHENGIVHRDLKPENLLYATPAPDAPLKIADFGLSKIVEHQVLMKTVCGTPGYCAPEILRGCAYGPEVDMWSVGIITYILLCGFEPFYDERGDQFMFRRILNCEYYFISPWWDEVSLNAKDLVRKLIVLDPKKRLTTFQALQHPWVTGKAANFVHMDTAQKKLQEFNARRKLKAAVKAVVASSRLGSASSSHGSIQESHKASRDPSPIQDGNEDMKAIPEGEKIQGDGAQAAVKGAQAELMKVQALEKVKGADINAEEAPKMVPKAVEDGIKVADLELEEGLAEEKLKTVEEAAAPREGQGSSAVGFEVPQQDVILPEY
Assay: Kinase profiling in a biochemical assay panel (mobility shift assays and ELISA), %-inhibition at 1 μM; selectivity entropy
Conditions: kinase CaMK4; 1 μM compound
Each entry below carries its recorded %-inhibition, CaMK4.
property: %-inhibition, CaMK4

INSERT INTO results (record_smiles, result) VALUES
  ('CCN(CC)CCNC(=O)c1c(C)[nH]c(/C=C2\C(=O)Nc3ccc(F)cc32)c1C', '26%'),
  ('COc1cc2c(Nc3ccc(Br)cc3F)ncnc2cc1OCC1CCN(C)CC1', '-3%'),
  ('Cc1ccc(C(=O)Nc2ccc(CN3CCN(C)CC3)c(C(F)(F)F)c2)cc1C#Cc1cnc2cccnn12', '-1.51%'),
  ('Cc1ccc(Nc2nccc(N(C)c3ccc4c(C)n(C)nc4c3)n2)cc1S(N)(=O)=O', '-1.08%'),
  ('CC(=O)Nc1cccc(-n2c(=O)n(C3CC3)c(=O)c3c(Nc4ccc(I)cc4F)n(C)c(=O)c(C)c32)c1', '-5.45%'),
  ('CCCS(=O)(=O)Nc1ccc(F)c(C(=O)c2c[nH]c3ncc(-c4ccc(Cl)cc4)cc23)c1F', '-2.38%'),
  ('CNC(=O)c1cc(Oc2ccc(NC(=O)Nc3ccc(Cl)c(C(F)(F)F)c3)c(F)c2)ccn1', '-0.0486%'),
  ('CO[C@H]1C[C@@H]2CC[C@@H](C)[C@@](O)(O2)C(=O)C(=O)N2CCCC[C@H]2C(=O)O[C@H]([C@H](C)C[C@@H]2CC[C@@H](OC(=O)C(C)(CO)CO)[C@H](OC)C2)CC(=O)[C@H](C)/C=C(\C)[C@@H](O)[C@@H](OC)C(=O)[C@H](C)C[C@H](C)/C=C/C=C/C=C/1C', '-9%'),
  ('CO[C@H]1C[C@@H]2CC[C@@H](C)[C@@](O)(O2)C(=O)C(=O)N2CCCC[C@H]2C(=O)O[C@H]([C@H](C)C[C@@H]2CC[C@@H](OCCO)[C@H](OC)C2)CC(=O)[C@H](C)/C=C(\C)[C@@H](O)[C@@H](OC)C(=O)[C@H](C)C[C@H](C)/C=C/C=C/C=C/1C', '-11%'),
  ('Cc1cn(-c2cc(NC(=O)c3ccc(C)c(Nc4nccc(-c5cccnc5)n4)c3)cc(C(F)(F)F)c2)cn1', '3.54%');
